Cited source: patent US10457707B2

The following molecules have recorded log10 of MIC on Staphylococcus aureus, USA 300.
*1 amine or outer side, *2 acyl side, *3 side chain or, on linkers, in order; H or OH if unused. Where a SMILES comes first, the peptide text is derived from it. Bridges are numbered along the chain shown (N, C = ends). [ ]: non-standard residue; d: D form. The star is where a group is joined. ξ: configuration not given here. Phe(3,5-F2) = N[C@@H](Cc1cc(F)cc(F)c1)C(=O)O; Morpholine(3S-CO) = O=C(O)[C@@H]1COCCN1; Pro(4R-Me) = C[C@H]1CN[C@H](C(=O)O)C1; NH(3,4-Me2-phenyl) = Cc1ccc(N*)cc1C; Hyp = O=C(O)[C@@H]1C[C@@H](O)CN1; NMeT = CN[C@H](C(=O)O)[C@@H](C)O; Heptenoyl(2E) = CCCC/C=C/C(=O)*; NH(4-Me-phenyl) = Cc1ccc(N*)cc1; aThr = C[C@H](O)[C@H](N)C(=O)O; X12 = c1nc2ccc(N*)cc2[nH]1; Pip = O=C(O)[C@@H]1CCCCN1; NMeA = CN[C@@H](C)C(=O)O; X1 = N#Cc1cc(N*)ccc1F; CO = O=C([*:1])[*:2]; X7 = CC/C=C/C(=O)*; ξP = O=C(O)C1CCCN1
// stored as log10 of MIC expressed in µM

For orientation, consider the following solved cases.
[[record]]
molecule = "CCCC/C=C/C(=O)N[C@@H](Cc1cc(F)cc(F)c1)C(=O)N[C@@H]1C(=O)N2C[C@H](O)C[C@H]2C(=O)N2CCOC[C@H]2C(=O)N[C@@H](C)C(=O)N2C[C@H](C)C[C@H]2C(=O)O[C@H]1C [Compound 309] ({Heptenoyl(2E)}-[Phe(3,5-F2)][aThr][Hyp][Morpholine(3S-CO)]A[Pro(4R-Me)]; ester 2-C)"
experimental_system = "Staphylococcus aureus, USA 300"
assay_result = -0.20

[[record]]
molecule = "C[C@@H]1C[C@H]2C(=O)O[C@@H](C)[C@H](NC(=O)[C@H](Cc3cc(F)cc(F)c3)NC(=O)Nc3ccc(F)c(C#N)c3)C(=O)N3CCC[C@H]3C(=O)N3CCCC[C@H]3C(=O)N[C@@H](C)C(=O)N2C1 [Compound 324] ({X1-CO}-[Phe(3,5-F2)][aThr]P[Pip]A[Pro(4R-Me)]; ester 2-C)"
experimental_system = "Staphylococcus aureus, USA 300"
assay_result = -0.20

[[record]]
molecule = "Cc1ccc(NC(=O)N[C@@H](Cc2cc(F)cc(F)c2)C(=O)N[C@@H]2C(=O)N3CCC[C@H]3C(=O)N(C)[C@@H]([C@@H](C)O)C(=O)N[C@@H](C)C(=O)N3C[C@H](C)C[C@H]3C(=O)O[C@H]2C)cc1 [Compound 38] ({NH(4-Me-phenyl)-CO}-[Phe(3,5-F2)][aThr]P[NMeT]A[Pro(4R-Me)]; ester 2-C)"
experimental_system = "Staphylococcus aureus, USA 300"
assay_result = -1.00

[[record]]
molecule = "CC/C=C/C(=O)N[C@@H](Cc1cc(F)cc(F)c1)C(=O)N[C@@H]1C(=O)N2C[C@H](O)C[C@H]2C(=O)N2CCCC[C@H]2C(=O)N[C@@H](C)C(=O)N2C[C@H](C)C[C@H]2C(=O)O[C@H]1C [Compound 300] (X7-[Phe(3,5-F2)][aThr][Hyp][Pip]A[Pro(4R-Me)]; ester 2-C)"
experimental_system = "Staphylococcus aureus, USA 300"
assay_result = 0.40

[[record]]
molecule = "Cc1ccc(NC(=O)N[C@@H](Cc2cc(F)cc(F)c2)C(=O)N[C@@H]2C(=O)N3C[C@H](O)C[C@H]3C(=O)N3CCCC[C@H]3C(=O)N[C@@H](C)C(=O)N3C[C@H](C)C[C@H]3C(=O)O[C@H]2C)cc1C [Compound 212] ({NH(3,4-Me2-phenyl)-CO}-[Phe(3,5-F2)][aThr][Hyp][Pip]A[Pro(4R-Me)]; ester 2-C)"
experimental_system = "Staphylococcus aureus, USA 300"
assay_result = -1.00


For the 3 molecules below, give their log10 of MIC values.
1. Cc1ccc(NC(=O)N[C@@H](Cc2cc(F)cc(F)c2)C(=O)N[C@@H]2C(=O)N3CCCC3C(=O)N(C)[C@@H](C)C(=O)N[C@@H](C)C(=O)N3CCCC3C(=O)O[C@H]2C)cc1 (some centres unmarked) [Compound 25] ({NH(4-Me-phenyl)-CO}-[Phe(3,5-F2)][aThr][ξP][NMeA]A[ξP]; ester 2-C)
2. Cc1ccc(NC(=O)N[C@@H](Cc2cc(F)cc(F)c2)C(=O)N[C@@H]2C(=O)N3CCC[C@H]3C(=O)N3CCCC[C@H]3C(=O)N[C@@H](C)C(=O)N3C[C@H](C)C[C@H]3C(=O)O[C@H]2C)cc1 [Compound 209] ({NH(4-Me-phenyl)-CO}-[Phe(3,5-F2)][aThr]P[Pip]A[Pro(4R-Me)]; ester 2-C)
3. C[C@@H]1C[C@H]2C(=O)O[C@@H](C)[C@H](NC(=O)[C@H](Cc3cc(F)cc(F)c3)NC(=O)Nc3ccc4nc[nH]c4c3)C(=O)N3CCC[C@H]3C(=O)N3CCCC[C@H]3C(=O)N[C@@H](C)C(=O)N2C1 [Compound 303] ({X12-CO}-[Phe(3,5-F2)][aThr]P[Pip]A[Pro(4R-Me)]; ester 2-C)

Ans.
1. -0.11
2. -1.30
3. 1.18
